Biological target: T1, MIM-Myc (murine, UniProt Q8R1S4 1-759)
T1 sequence (looked up): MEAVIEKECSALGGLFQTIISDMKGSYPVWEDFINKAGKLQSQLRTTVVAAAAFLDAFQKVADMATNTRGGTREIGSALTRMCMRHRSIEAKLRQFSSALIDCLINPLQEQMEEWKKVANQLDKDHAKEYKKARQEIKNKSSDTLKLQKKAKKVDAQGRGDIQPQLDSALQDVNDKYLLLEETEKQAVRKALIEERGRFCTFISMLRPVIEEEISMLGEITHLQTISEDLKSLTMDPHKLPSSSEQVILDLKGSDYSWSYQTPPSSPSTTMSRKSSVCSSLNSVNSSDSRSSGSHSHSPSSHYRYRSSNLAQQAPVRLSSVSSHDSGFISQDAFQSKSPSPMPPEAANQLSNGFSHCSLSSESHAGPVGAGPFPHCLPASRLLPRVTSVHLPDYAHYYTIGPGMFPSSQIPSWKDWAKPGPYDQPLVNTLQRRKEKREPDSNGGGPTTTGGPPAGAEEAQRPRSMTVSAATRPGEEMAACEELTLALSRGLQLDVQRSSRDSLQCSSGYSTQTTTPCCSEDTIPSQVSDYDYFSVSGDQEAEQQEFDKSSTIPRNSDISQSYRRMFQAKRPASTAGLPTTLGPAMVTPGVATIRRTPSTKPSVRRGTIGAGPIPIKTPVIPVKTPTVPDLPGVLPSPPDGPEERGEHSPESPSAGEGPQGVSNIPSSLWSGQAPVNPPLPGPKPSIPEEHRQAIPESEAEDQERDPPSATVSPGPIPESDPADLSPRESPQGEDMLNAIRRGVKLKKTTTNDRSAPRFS
Assay: co-IP
reportedProperty: pIC50
Answers are plain numbers, as −log10 of the molar value.

(Q) Entry AFQKVADMATNTRGGTREIGSALTRMCMRHRSI [MIM-S3] : reported pIC50 = ?
(A) 6.85
